# System: Staphylococcus aureus
# assay-summary: Antibacterial activity against Staphylococcus aureus ATCC 25923 after 16 hrs by microdilution assay
# Type: functional
# assay-context: ATCC 25923, 16 h
experimental-endpoint: MIC

Sample answers from the record:
>>> reported_measurement("COc1ccc(-c2coc3cc(O)ccc3c2=O)cc1")
"> 100 µg/mL"
>>> reported_measurement("COC1=CC(=O)C([C@@H]2COc3cc(O)ccc3C2)=CC1=O")
"6 µg/mL"
>>> reported_measurement("COC1=CC(=O)C(c2coc3cc(O)cc(O)c3c2=O)=CC1=O")
"> 100 µg/mL"
>>> reported_measurement("CN(C)[C@@H]1C(O)=C(C(N)=O)C(=O)[C@@]2(O)C(O)=C3C(=O)c4c(O)cccc4[C@@](C)(O)[C@H]3C[C@@H]12")
"0.6 µg/mL"

For COc1ccc([C@@H]2COc3cc(O)ccc3C2)c(O)c1 the compound record lists MIC as > 100 µg/mL

For COc1ccc(C2COc3cc(O)ccc3C2)c(OC)c1O (racemic) [MUCRONULATOL(+/-)] the compound record lists MIC as > 100 µg/mL

---

# Tested on: Penicillium expansum
# assay-summary: Antifungal activity against Penicillium expansum ATCC 7861 after 3 days by microdilution assay
# Assay type: functional
# assay-context: ATCC 7861, 72 h
This section presents compounds with their documented MIC values.

MIC for Penicillium expansum with input COC1=CC(=O)C(c2coc3cc(O)cc(O)c3c2=O)=CC1=O equals > 100 µg/mL

MIC for Penicillium expansum with input COC1=CC(=O)C([C@@H]2COc3cc(O)ccc3C2)=CC1=O equals > 100 µg/mL

MIC for Penicillium expansum with input COc1ccc(-c2coc3cc(O)ccc3c2=O)cc1 equals 50 µg/mL

MIC for Penicillium expansum with input COc1ccc(C2COc3cc(O)ccc3C2)c(OC)c1O (racemic) [MUCRONULATOL(+/-)] equals > 100 µg/mL

MIC for Penicillium expansum with input COc1ccc([C@@H]2COc3cc(O)ccc3C2)c(O)c1 equals > 100 µg/mL
